Test system: Bean (BN)
Experimental Protocol: Post-emergence herbicide test
Format: in vivo, Phaseolus vulgaris var. Black Valentine
Reported Conditions: Phaseolus vulgaris, post-emergence, 336 h; 8 lb/acre; two weeks after treatment
Property Name: pest or weed control at 8966.8 g/ha (%)
Kindly provide the numeric value in % only, without the unit symbol.

`CNC(=O)Nc1nnc(S(C)(=O)=O)s1` yielded pest or weed control at 8966.8 g/ha of 100

`CNC(=O)Nc1nnc(-c2ccc(C)cc2)s1` yielded pest or weed control at 8966.8 g/ha of 50

`CNC(=O)Nc1nnc(CC(C)C)s1` yielded pest or weed control at 8966.8 g/ha of 60

`CNC(=O)Nc1nnc(C)s1` yielded pest or weed control at 8966.8 g/ha of 50

`CCCNC(=O)Nc1nnc(C(F)(F)F)s1` yielded pest or weed control at 8966.8 g/ha of 50

`CNC(=O)Nc1nnc(SC)s1` yielded pest or weed control at 8966.8 g/ha of 100

`CNC(=O)Nc1nnc(SCc2ccc(Cl)cc2)s1` yielded pest or weed control at 8966.8 g/ha of 100

`CN(C)C(=O)Nc1nnc(C(F)(F)F)s1` yielded pest or weed control at 8966.8 g/ha of 60

`CNC(=O)Nc1nnc(C(F)(F)F)s1` yielded pest or weed control at 8966.8 g/ha of 100

`Cc1nnc(NC(=O)N(C)C)s1` yielded pest or weed control at 8966.8 g/ha of 50

`C=CCNC(=O)Nc1nnc(SC)s1` yielded pest or weed control at 8966.8 g/ha of 100

`CNC(=O)Nc1nncs1` yielded pest or weed control at 8966.8 g/ha of 30

----------
Test system: Turnip (TP)
Experimental Protocol: Post-emergence herbicide test
Format: in vivo, Brassica sp.
Reported Conditions: Brassica rapa, post-emergence, 336 h; 4 lb/acre; two weeks after treatment
Assignment: determine reported pest or weed control at 4483.4 g/ha for the given compounds.
Just the number plus its unit, please.

Per the reported Turnip (TP) data, C=C(C)CSc1nnc(NC(=O)NC)s1 [Example 49] has pest or weed control at 4483.4 g/ha of 90%

Per the reported Turnip (TP) data, CCCCS(=O)(=O)c1nnc(N(C)C(=O)NC)s1 [Example 92] has pest or weed control at 4483.4 g/ha of 100%

Per the reported Turnip (TP) data, CCCCCCS(=O)(=O)c1nnc(NC(=O)NC)s1 [Example 58] has pest or weed control at 4483.4 g/ha of 80%

Per the reported Turnip (TP) data, CCN(C(=O)NC)c1nnc(C(F)(F)F)s1 [Example 37] has pest or weed control at 4483.4 g/ha of 90%

Per the reported Turnip (TP) data, CCS(=O)(=O)c1nnc(NC(=O)NC)s1 [Example 81] has pest or weed control at 4483.4 g/ha of 100%

Per the reported Turnip (TP) data, CCCSc1nnc(N(C)C(=O)N(C)C)s1 [Example 66] has pest or weed control at 4483.4 g/ha of 100%

Per the reported Turnip (TP) data, CNC(=O)Nc1nnc(SCCC(C)C)s1 [Example 51] has pest or weed control at 4483.4 g/ha of 90%

Per the reported Turnip (TP) data, CCC(C)Sc1nnc(NC(=O)NC)s1 (centres unmarked) [Example 48] has pest or weed control at 4483.4 g/ha of 70%

Per the reported Turnip (TP) data, CNC(=O)Nc1nnc(SC)s1 [Example 26] has pest or weed control at 4483.4 g/ha of 100%

Per the reported Turnip (TP) data, CCCCSc1nnc(N(C)C(=O)NC)s1 [Example 90] has pest or weed control at 4483.4 g/ha of 100%

Per the reported Turnip (TP) data, CNC(=O)Nc1nnc(C(F)F)s1 [Example 67] has pest or weed control at 4483.4 g/ha of 100%
